Collected pIC50 values appear next to each entry.
Target: Cbl-b (Homo sapiens)
Sequence (Q13191 36-427): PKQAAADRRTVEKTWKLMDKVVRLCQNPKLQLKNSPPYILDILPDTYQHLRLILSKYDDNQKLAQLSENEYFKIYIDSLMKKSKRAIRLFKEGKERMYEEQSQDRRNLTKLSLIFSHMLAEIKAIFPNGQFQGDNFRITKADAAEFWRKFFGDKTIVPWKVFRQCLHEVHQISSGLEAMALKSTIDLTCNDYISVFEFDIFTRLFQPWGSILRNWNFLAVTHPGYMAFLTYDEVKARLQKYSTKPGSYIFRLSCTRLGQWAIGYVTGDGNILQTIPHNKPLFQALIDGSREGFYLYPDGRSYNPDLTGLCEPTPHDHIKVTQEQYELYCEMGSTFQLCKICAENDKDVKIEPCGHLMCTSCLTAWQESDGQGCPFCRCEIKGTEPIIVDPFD
Assay: Cbl-b activity assay (Cbl-b inhibition assay), TR-FRET of Cbl-b interaction with UbcH5B-Ub
Assay type: biochemical
Details: assay buffer with 100 mM NaCl, 60 nM Src kinase; read-out: Cbl-b activity IC50
pIC50: −log10 of the molar value.

Below, 5 molecules whose answers are already recorded.
CNC(=O)c1ccc2c(c1)C(=O)N(c1cc(C(C)Sc3nncn3C)ccn1)C2 (stereo not shown) [Compound 173]: 5.00 to 5.52
C[C@H](Sc1nncn1C)c1cccc(NC(=O)c2cc(C3(O)COC3)cc(C(F)(F)F)n2)c1 [Compound 84]: 6.00 to 6.52
C[C@H](Sc1nncn1C)c1cccc(NC(=O)c2cc(C(=O)N3CC[C@H](N)C3)ccn2)c1 [Compound 147]: 5.00 to 5.52
C[C@@H](Sc1nncn1C)c1ccnc(N2Cc3c(cccc3C(F)(F)F)C2=O)c1 [Compound 172b]: 5.00 to 5.52
Cn1cnnc1C[C@](C)(F)c1cccc(N2Cc3c(cccc3C(F)(F)F)C2=O)c1 [Compound 298b]: 6.52 to 7.00

Shifting focus to the molecule that follows.
IN: Provide one value: measured pIC50 of C[C@H](Cc1nncn1C)c1cccc(NC(=O)c2ccn3nccc3n2)c1 [Compound 316]
OUT: 6.00 to 6.52

---

Each entry below carries its measured pKd, system: Cbl-b (residues 36-427) (Homo sapiens, UniProt Q13191).
Sequence (Q13191 36-427): as above
pKd: −log10 of the molar value.

Below, 5 molecules whose answers are already recorded.
C[C@H](Sc1nncn1C)c1cccc(NC(=O)c2cc(C(C)(C)O)cc(C(F)(F)F)n2)c1 [Compound 85]: 6.00 to 6.52
C[C@H](Cc1nncn1C)c1cccc(NC(=O)c2cc(C(=O)N3CC[C@H](C#N)C3)ccn2)c1 [Compound 236]: 5.52 to 6.00
Cn1cnnc1CC1(c2cccc(NC(=O)c3cc(CN4CC[C@H](F)C4)cc(C4CC4)n3)c2)COC1 [Compound 496]: > 7.00
Cc1cnc(C(=O)Nc2cccc([C@H](C)Sc3nncn3C)c2)cc1C1CC1 [Compound 53]: 5.00 to 5.52
COc1ccc(C(=O)Nc2cccc([C@H](C)Sc3nncn3C)c2)nc1C1CC1 [Compound 93]: 6.52 to 7.00

IN: State recorded pKd with Cbl-b (residues 36-427) (Homo sapiens, UniProt Q13191), entry CNC(=O)COc1ccc2cnc(C(=O)Nc3cccc([C@@H](C)Sc4nncn4C)c3)cc2c1 [Compound 306b] , no comment.
OUT: 5.00 to 5.52

IN: State recorded pKd with Cbl-b (residues 36-427) (Homo sapiens, UniProt Q13191), entry C[C@H](Cc1nncn1C)c1cccc(NC(=O)c2cc(O[C@@H]3CC[C@@H](O)C3)ccn2)c1 (relative stereo) [Compound 205] , no comment.
OUT: 6.52 to 7.00

IN: State recorded pKd with Cbl-b (residues 36-427) (Homo sapiens, UniProt Q13191), entry C[C@H](Sc1nncn1C)c1cccc(NC(=O)c2cc(C(=O)N3C[C@@H](O)C[C@@H]3C)ccn2)c1 [Compound 154] , no comment.
OUT: < 5.00

IN: State recorded pKd with Cbl-b (residues 36-427) (Homo sapiens, UniProt Q13191), entry C[C@@H](Cc1nncn1C)c1cccc(NC(=O)c2cccc(C(F)(F)F)n2)c1 [Compound 183b] , no comment.
OUT: 5.00 to 5.52

IN: State recorded pKd with Cbl-b (residues 36-427) (Homo sapiens, UniProt Q13191), entry C[C@@H](Cc1nncn1C)c1cc(F)cc(N2Cc3c(cccc3C(F)(F)F)C2=O)c1 [Compound 281b] , no comment.
OUT: 6.52 to 7.00

IN: State recorded pKd with Cbl-b (residues 36-427) (Homo sapiens, UniProt Q13191), entry Cc1conc1C[C@@H](C)c1cccc(NC(=O)c2ccnc(C(F)(F)F)n2)c1 [Compound 213a] , no comment.
OUT: 6.52 to 7.00

IN: State recorded pKd with Cbl-b (residues 36-427) (Homo sapiens, UniProt Q13191), entry C[C@H](Sc1nncn1C)c1cccc(NC(=O)c2cncc(C(F)(F)F)n2)c1 [Compound 77] , no comment.
OUT: 5.52 to 6.00

IN: State recorded pKd with Cbl-b (residues 36-427) (Homo sapiens, UniProt Q13191), entry CNc1ccnc(C(=O)Nc2cccc([C@H](C)Sc3nncn3C)c2)c1 [Compound 60] , no comment.
OUT: 5.00 to 5.52

IN: State recorded pKd with Cbl-b (residues 36-427) (Homo sapiens, UniProt Q13191), entry CC(c1cccc(NC(=O)c2ccc(CO)c(C3CC3)n2)c1)C(F)(F)c1nncn1C (centres unmarked) [Compound 287] , no comment.
OUT: 5.52 to 6.00

IN: State recorded pKd with Cbl-b (residues 36-427) (Homo sapiens, UniProt Q13191), entry CC(Cc1n[nH]cc1CO)c1cccc(N2Cc3c(cccc3C(F)(F)F)C2=O)c1 (centres unmarked) [Compound 271] , no comment.
OUT: 5.00 to 5.52

IN: State recorded pKd with Cbl-b (residues 36-427) (Homo sapiens, UniProt Q13191), entry C[C@H](Cc1nncn1C)c1cccc(NC(=O)c2cccc(C(F)(F)CO)n2)c1 [Compound 188] , no comment.
OUT: 6.00 to 6.52

IN: State recorded pKd with Cbl-b (residues 36-427) (Homo sapiens, UniProt Q13191), entry C[C@H](Cc1nnco1)c1cccc(N2Cc3c(cccc3C(F)(F)F)C2=O)c1 [Compound 266] , no comment.
OUT: < 5.00

The reported numbers originate from patent US20220324835A1.
